run-description: NCI Yeast Anticancer Drug Screen. Data for the rad50 strain (AID 155);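 also: 0% = growth of vehicle-only cultures of the same strain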
assay-conditions: S. cerevisiae rad50 strain growth inhibition; at 50.0 µM
Compounds without any hit were thinned out: in the full panel of roughly 79,000, 15% have a hit. The source made the active and inactive calls. Rule as the data show it: active = growth inhibition above about 70%; inactive = the rest.
Result category, one only: active, inactive

Example results:
{"compound": "NC(=O)c1ccccc1OC(=O)Nc1ccccc1", "label-value": "inactive"}
{"compound": "CNC(=O)N(C)c1cc(N(C)C)nc(OC)n1", "label-value": "inactive"}
{"compound": "Cc1ccc(NCCN(C)C)c2c(=O)c3cccc(O)c3sc12", "label-value": "active"}

For this compound, state the assay outcome: `NCCCn1[nH]c(=O)c2cccnc2c1=O` inactive

Test call for this compound, please: CC(=O)N1C(NN(C)C)CCN1c1ccccc1 (configuration not stated) inactive

Record request — test call for CCCOC(=O)C1(C)CCC(=O)O1 (configuration not stated) inactive

Check the results log: what was the call for `CCOC(=O)N1CCCCC1` ? inactive

----------
run-description: NCI Yeast Anticancer Drug Screen. Data for the rad50 strain (AID 155);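 also: 0% = growth of vehicle-only cultures of the same strain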
assay-conditions: S. cerevisiae rad50 strain growth inhibition; at 50.0 µM; active compounds read high
Compounds without any hit were thinned out: in the full panel of roughly 79,000, 15% have a hit.
assay-metric: growth inhibition (%)
Response body: numeric value in %, unit text excluded.

// recorded growth inhibition for `C/C(=N/NC(N)=S)c1cn[nH]c1C` : -64.3

So for `Cc1ccc(N=Nc2ccc(C)cc2NC(=O)CCl)cc1` , the logged growth inhibition turned out to be -17.7

For reference, reported growth inhibition for O=C(OCC1CCCO1)c1ccccc1 (stereo unspecified) stands at 8.4

For this compound ( `O=C1c2cccc3c(Br)ccc(c23)C(=O)N1CCCN1CCOCC1` ), measured growth inhibition is 63.5

Briefly, growth inhibition measured for COc1ccc(-c2cc3cc(CCCOC4OC(COC5OCC(O)C(O)C5O)C(O)C(O)C4O)cc(OC)c3o2)cc1OC (stereo unspecified) : 31

// growth inhibition value for `O=C(n1[nH]c(=O)n(-c2ccc([N+](=O)[O-])cc2)c1=O)C(Cl)(Cl)Cl` : 7.9

Lab note: N#CC(c1ccc(O)cc1)N1CCN(C(C#N)c2ccc(O)cc2)CC1 (stereo unspecified) gave growth inhibition of -1.5

----------
run-description: NCI Yeast Anticancer Drug Screen. Data for the rad50 strain (AID 155);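 also: 0% = growth of vehicle-only cultures of the same strain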
assay-conditions: S. cerevisiae rad50 strain growth inhibition; at 50.0 µM; active compounds read high
This is part of a sample that, as a whole, favours compounds with a hit. Of some 79,000 tested, about 15% had one in any assay.
assay-metric: growth inhibition (%)
Respond with the bare value in %.

So for CCCCCCC(O)Cc1ccccc1 (stereo not drawn) , the logged growth inhibition turned out to be 5.95

Sample `COc1ccc2c(c1)CCCN2C(=N)c1ccc([N+](=O)[O-])cc1` ; growth inhibition observed: -24.5

growth inhibition reading for `C=Cc1nnnn1C` : 7.45

----------
run-description: NCI Yeast Anticancer Drug Screen. Data for the mec2-1 strain (AID 157)
assay-conditions: S. cerevisiae mec2-1 strain, at 50.0 µM, active compounds read high
Compounds without any hit were thinned out: in the full panel of roughly 79,000, 15% have a hit.
assay-metric: growth inhibition (%)
Please respond with the number in % and leave the unit unwritten.

{"compound": "CCCSc1ncnc2c1ncn2COC(=O)NC", "assay-metric": "growth inhibition", "test-result": -11.4}
{"compound": "CC(=O)Nc1cc([N+](=O)[O-])c2[nH]c(=O)c3ccccc3c2c1", "assay-metric": "growth inhibition", "test-result": -6.7}

The reported growth inhibition of the compound CCc1c(C)c(C#N)c(=S)n(C2OC(COC(C)=O)C(OC(C)=O)C(OC(C)=O)C2OC(C)=O)c1-c1ccccc1 (stereo unspecified) was 13.1

Notebook: `CCOc1ccccc1/C=C/C(=O)O` , growth inhibition read as -9.7

// `CN(C)Cc1ccc(O)c(CN(C)C)n1` : growth inhibition value = -19.1

Consider `CCCC(=O)OCc1ccc(Cl)cc1Cl` . Its measured growth inhibition is 13.3
